// provenance: paper PMC3705312

Molecular target: 15-LO from soybeans (Glycine max)
Construct: purchased Sigma-Aldrich
Sequence (P08170 whole entry): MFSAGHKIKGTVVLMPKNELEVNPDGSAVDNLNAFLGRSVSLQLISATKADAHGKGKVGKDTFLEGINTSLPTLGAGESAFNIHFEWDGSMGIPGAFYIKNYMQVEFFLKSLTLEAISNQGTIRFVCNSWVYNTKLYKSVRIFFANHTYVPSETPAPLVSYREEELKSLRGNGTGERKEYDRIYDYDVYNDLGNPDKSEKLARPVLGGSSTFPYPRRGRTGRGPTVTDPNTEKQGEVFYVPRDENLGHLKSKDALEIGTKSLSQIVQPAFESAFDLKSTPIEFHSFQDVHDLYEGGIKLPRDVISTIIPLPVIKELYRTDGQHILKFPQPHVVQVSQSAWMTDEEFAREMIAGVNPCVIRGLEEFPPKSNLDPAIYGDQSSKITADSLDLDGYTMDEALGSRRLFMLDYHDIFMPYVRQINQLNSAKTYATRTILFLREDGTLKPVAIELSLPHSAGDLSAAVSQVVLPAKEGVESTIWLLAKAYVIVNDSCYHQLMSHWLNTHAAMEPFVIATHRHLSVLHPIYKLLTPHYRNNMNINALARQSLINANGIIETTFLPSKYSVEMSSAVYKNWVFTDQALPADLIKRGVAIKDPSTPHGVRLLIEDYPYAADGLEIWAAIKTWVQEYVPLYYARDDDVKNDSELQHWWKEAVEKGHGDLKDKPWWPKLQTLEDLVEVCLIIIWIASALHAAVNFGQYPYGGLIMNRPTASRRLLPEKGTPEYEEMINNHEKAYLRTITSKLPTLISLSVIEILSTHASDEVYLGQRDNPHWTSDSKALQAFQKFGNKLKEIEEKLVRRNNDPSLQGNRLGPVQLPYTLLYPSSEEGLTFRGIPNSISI
Test: Inhibition of 15-lipoxygenase (15-LO)
Assay type: biochemical, soybean
Conditions: 15-Lipoxygenase IC50, linoleic acid 134 µM, borate buffer pH 9.00; average ± SD, triplicate
QUANTITY: pIC50
Scale explanation: pIC50 corresponds to minus log10 of a concentration expressed in moles per litre.

Lab book: pIC50 of Oc1cc(O)c2c(c1)O[C@H](c1ccc(O)c(O)c1)[C@H](O)[C@H]2c1c(O)cc(O)c2c1O[C@H](c1ccc(O)c(O)c1)[C@H](O)C2 noted as 3.95
